measured-target: F508delCFTR (Homo sapiens, UniProt P13569, DEL508-508)
Construct: expressed in transfected cells; host or cells: CFBE41o- human lung-derived epithelial cells (CFBE41o-F508delCFTR-HRP), doxycycline-inducible
Sequence (P13569 with tags, fused parts or gaps DEL508-508): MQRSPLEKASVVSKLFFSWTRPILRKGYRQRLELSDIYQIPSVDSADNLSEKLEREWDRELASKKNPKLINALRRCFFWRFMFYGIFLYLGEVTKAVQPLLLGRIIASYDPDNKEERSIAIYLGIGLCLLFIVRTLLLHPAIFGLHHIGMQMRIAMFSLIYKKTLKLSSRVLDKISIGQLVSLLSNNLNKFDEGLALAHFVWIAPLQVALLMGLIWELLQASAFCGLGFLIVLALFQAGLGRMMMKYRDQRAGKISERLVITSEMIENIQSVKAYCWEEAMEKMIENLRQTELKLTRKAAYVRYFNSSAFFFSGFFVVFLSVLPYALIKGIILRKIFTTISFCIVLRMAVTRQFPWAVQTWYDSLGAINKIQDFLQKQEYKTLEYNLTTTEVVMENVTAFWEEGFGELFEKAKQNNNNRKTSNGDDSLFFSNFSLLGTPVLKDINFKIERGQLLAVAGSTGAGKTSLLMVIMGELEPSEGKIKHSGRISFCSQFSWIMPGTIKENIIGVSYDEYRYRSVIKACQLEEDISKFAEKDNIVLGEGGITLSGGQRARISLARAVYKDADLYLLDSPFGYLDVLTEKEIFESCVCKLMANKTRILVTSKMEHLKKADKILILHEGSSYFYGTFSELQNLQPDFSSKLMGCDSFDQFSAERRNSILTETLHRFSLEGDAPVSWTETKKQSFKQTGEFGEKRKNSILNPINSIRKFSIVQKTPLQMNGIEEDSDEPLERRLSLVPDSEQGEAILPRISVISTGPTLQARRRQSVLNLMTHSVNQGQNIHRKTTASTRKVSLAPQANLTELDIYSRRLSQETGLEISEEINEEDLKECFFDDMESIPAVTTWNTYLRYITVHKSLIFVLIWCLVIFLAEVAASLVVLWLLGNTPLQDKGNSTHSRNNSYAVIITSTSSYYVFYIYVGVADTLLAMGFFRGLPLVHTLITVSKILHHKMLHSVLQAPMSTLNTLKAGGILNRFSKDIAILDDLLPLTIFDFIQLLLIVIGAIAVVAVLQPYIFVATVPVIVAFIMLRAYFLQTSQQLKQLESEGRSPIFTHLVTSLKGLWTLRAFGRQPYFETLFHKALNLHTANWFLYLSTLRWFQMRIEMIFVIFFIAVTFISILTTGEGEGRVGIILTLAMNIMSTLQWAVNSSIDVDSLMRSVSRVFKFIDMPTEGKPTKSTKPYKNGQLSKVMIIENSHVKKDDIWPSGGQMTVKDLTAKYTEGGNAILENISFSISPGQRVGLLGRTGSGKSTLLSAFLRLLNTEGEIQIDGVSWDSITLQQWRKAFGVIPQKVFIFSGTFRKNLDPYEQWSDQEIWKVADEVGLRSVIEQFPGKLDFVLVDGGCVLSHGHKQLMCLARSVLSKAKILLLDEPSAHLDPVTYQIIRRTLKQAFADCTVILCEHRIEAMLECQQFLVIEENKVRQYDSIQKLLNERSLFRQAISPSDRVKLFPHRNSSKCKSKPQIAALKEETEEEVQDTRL
experiment-description: Cell Surface Expression-Horse Radish Peroxidase (CSE-HRP) assay, test compound without co-corrector;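 also: percent of on-plate 2 µM positive control corrector response over DMSO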
Assay type: cell-based
experimental-conditions: maximum at any tested concentration, normalized to positive control, without co-corrector
Form field: Emax (one value per entry).

Recorded Emax, per entry:
INSERT INTO assay_data (compound, measured_quantity, result_value) VALUES
  ('COc1ccc(C2=CCOCC2)c2c1CCCC2C(=O)NS(=O)(=O)c1cccc2ccccc12 (stereo not drawn)', 'Emax', '≥ 150%'),
  ('COc1cccc2c1CCCC2(Cc1ccccc1)C(=O)NS(=O)(=O)c1cccc2ccccc12 (stereo not drawn)', 'Emax', '≥ 150%'),
  ('Cc1ccccc1S(=O)(=O)NC(=O)[C@@]1(C)CCc2ccc(Cl)cc21', 'Emax', '< 50%');

stdin: Item `COc1ccc(C)c2c1CC[C@H]2C(=O)NS(=O)(=O)c1cccc2ccccc12` has what recorded Emax?
stdout: ≥ 150%

stdin: Item COc1cccc2c1CCC2C(=O)NS(=O)(=O)c1c(F)cccc1F (stereo not drawn) has what recorded Emax?
stdout: < 50%

stdin: Item CCC1(C(=O)NS(=O)(=O)c2cn(C)c3ccccc23)CCc2c(Cl)cccc21 (stereo not drawn) has what recorded Emax?
stdout: 50 to 150%

---

measured-target: F508delCFTR (Homo sapiens, UniProt P13569, DEL508-508)
Construct: expressed in transfected cells; host or cells: CFBE41o- human lung-derived epithelial cells (CFBE41o-F508delCFTR-HRP), doxycycline-inducible
experiment-description: Cell Surface Expression-Horse Radish Peroxidase (CSE-HRP) assay, test compound with co-corrector;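 also: percent of 2 µM positive control corrector over DMSO; co-corrector is that same compound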
Format: cell-based
experimental-conditions: maximum at any tested concentration, normalized to positive control, with 2 μM co-corrector
measured-quantity: Maximum % activity (with co-corrector)

Recorded Maximum % activity (with co-corrector), per entry:
INSERT INTO results (compound, measured_quantity, result_value) VALUES
  ('O=C(NS(=O)(=O)c1ccc(Cl)cc1)C1CCc2c(Cl)cccc21 (stereo not drawn)', 'Maximum % activity (with co-corrector)', '++ (≥150 and <350)'),
  ('COc1ccc2c(c1OC)CCCC2C(=O)NS(=O)(=O)c1cccc2ccccc12 (stereo not drawn)', 'Maximum % activity (with co-corrector)', '+++ (≥350)'),
  ('COCc1ccc(OC)c2c1CCC2C(=O)NS(=O)(=O)c1cccc2ccccc12 (stereo not drawn)', 'Maximum % activity (with co-corrector)', '+++ (≥350)'),
  ('CCC1(C(=O)NS(=O)(=O)c2cccc3c2OCCO3)CCc2c(Cl)cccc21 (stereo not drawn)', 'Maximum % activity (with co-corrector)', '+ (<150)'),
  ('O=C(NS(=O)(=O)c1cccc2ccccc12)C1CCCc2c(Cl)ccc(O)c21 (stereo not drawn)', 'Maximum % activity (with co-corrector)', '+++ (≥350)'),
  ('COc1ccc(C(F)(F)F)c2c1[C@H](C(=O)NS(=O)(=O)c1cccc3ncccc13)CC2', 'Maximum % activity (with co-corrector)', '+++ (≥350)'),
  ('O=C(C1CCCc2c(OCc3ccccc3)ccc(Br)c21)N(Cc1ccccc1)S(=O)(=O)c1cccc2ccccc12 (stereo not drawn)', 'Maximum % activity (with co-corrector)', '+ (<150)'),
  ('CCCCC1(C(=O)NS(=O)(=O)c2cccc3ccccc23)CCc2c(Cl)cccc21 (stereo not drawn)', 'Maximum % activity (with co-corrector)', '+++ (≥350)');

stdin: Item COc1cccc2c1CCC2C(=O)NS(=O)(=O)c1ccc(C)c([N+](=O)[O-])c1C (stereo not drawn) has what recorded Maximum % activity (with co-corrector)?
stdout: ++ (≥150 and <350)

stdin: Item `Cc1ccccc1S(=O)(=O)NC(=O)[C@H]1CCCc2ccccc21` has what recorded Maximum % activity (with co-corrector)?
stdout: ++ (≥150 and <350)

stdin: Item CCC1(C(=O)NS(=O)(=O)c2cccc3ccccc23)Cc2cccc(OC)c21 (stereo not drawn) has what recorded Maximum % activity (with co-corrector)?
stdout: +++ (≥350)

stdin: Item COc1ccc(CC(C)C)c2c1C(C(=O)NS(=O)(=O)c1cccc3ncccc13)CC2 (stereo not drawn) has what recorded Maximum % activity (with co-corrector)?
stdout: +++ (≥350)

stdin: Item CCC1(C(=O)NS(=O)(=O)c2cccc3nccnc23)CCc2c(Cl)cccc21 (stereo not drawn) has what recorded Maximum % activity (with co-corrector)?
stdout: + (<150)

stdin: Item COc1cccc2c1CCC2C(=O)NS(=O)(=O)c1c(C(=O)OC(C)(C)C)c(C)nn1C (stereo not drawn) has what recorded Maximum % activity (with co-corrector)?
stdout: + (<150)

stdin: Item CCC1(C(=O)NS(=O)(=O)c2ccccc2F)CCc2c(Cl)cccc21 (stereo not drawn) has what recorded Maximum % activity (with co-corrector)?
stdout: ++ (≥150 and <350)

stdin: Item `COc1ccc(C2CCC2)c2c1[C@H](C(=O)NS(=O)(=O)c1cccc3ncn(C)c13)CC2` has what recorded Maximum % activity (with co-corrector)?
stdout: +++ (≥350)

stdin: Item O=C(NS(=O)(=O)c1cccc2ccccc12)C1CCCc2c(OC3CCCC3)ccc(Br)c21 (stereo not drawn) has what recorded Maximum % activity (with co-corrector)?
stdout: +++ (≥350)

stdin: Item CCC1(C(=O)NS(=O)(=O)c2cccc(Br)c2C)CCc2c(Cl)cccc21 (stereo not drawn) has what recorded Maximum % activity (with co-corrector)?
stdout: +++ (≥350)

Hey, just so you know, these numbers are from patent US20180244611A1.
